Test: Probe calibration by titration with FFA / FFA-BSA complexes: LA
Format: binding
Details: equilibrium dissociation constant of probe for LA
quantity: pKd
Note on pKd: it is the negative log10 of concentration, concentration in mol/L.

Enquiry: Supply pKd value. Item: L1P8 H2: acrylodan-labeled mutant FABP probe: Y14M, L38M, L72W (protein, UniProt P02693 2-132, looked up, variant Y14M L38M L72W, acrylodan label, acrylodan-labeled mutant FABP probe: Y14M, L38M, L72W) Fatty acid-binding protein, …: AFDGTWKVDRNENMEKFMEKMGINVVKRKLGAHDNLKMTITQEGNKFTVKESSNFRNIDVVFELGVDFAYSWADGTELTGTWTMEGNKLVGKFKRVDNGKELIAVREISGNELIQTYTYEGVEAKRIFKKE
Return: 7.01
